B1: FADS1 (parent)
chain: LNFQIEHHLFPTMPRHNYHKVAPL

- Variants of: B1
- ASSAY PROTOCOL: protein stability index of a GFP-peptide fusion (GPS, HEK-293T) (PSI 1-6); higher = more stable;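 note: lentivirally expressed fusions sorted by FACS into six bins by GFP to DsRed ratio, PSI derived from sequencing read proportions per bin multiplied by bin number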
- MEASUREMENT CONDITIONS: c terminus: a fixed tail appended
Parameter threshold = 2. Response is TRUE when protein stability index meets or exceeds it, else FALSE.

Please indicate if the recorded protein stability index for F3Q meets or exceeds 2.
TRUE

Does N2W have a reported protein stability index of at least 2?
TRUE

Entry H19Y : is its protein stability index no less than 2?
TRUE

Please tell me: is the variant H19I at or over 2 in terms of protein stability index?
TRUE

Does the reported protein stability index for L24T fall at or above the 2 mark?
FALSE

Answer whether protein stability index of F10T is greater than or equal to 2.
FALSE

Assess whether reported protein stability index for E6C sits at 2 or higher.
TRUE

Please check the record A22I and state if its protein stability index is at or above 2.
TRUE

Is protein stability index at least 2? Consider L24Y
TRUE

Could you please find out whether R15N has protein stability index that meets 2 or exceeds it?
TRUE

Threshold query (protein stability index >= 2) on K20R
TRUE

Quick check: does L24H have protein stability index greater than or equal to 2?
TRUE

Would you say N2I shows protein stability index at minimum 2?
TRUE

hey, is protein stability index for this one >= 2? T12N
FALSE

hey, is protein stability index for this one >= 2? P23C
FALSE

In plain terms: is recorded protein stability index at least 2 for P14Y ?
TRUE

Dear colleague, could you confirm whether P11L has protein stability index at or above 2?
TRUE

Hello, I need to know if L1G has measured protein stability index not below 2. Thanks!
TRUE

Hi, just wondering whether Y18C shows protein stability index of 2 or higher.
TRUE

Could you verify whether the entry N17T shows protein stability index of no less than 2?
TRUE

Item N2M with protein stability index of 2 or above?
FALSE

Quick check: does V21L have protein stability index greater than or equal to 2?
TRUE

Confirm if protein stability index reported for the variant H16N is 2 or above.
TRUE

State whether the measured protein stability index reaches 2, counting equality as reaching it, for N2K
TRUE

Tell me whether protein stability index is at least 2 here: L1S
FALSE

State whether the measured protein stability index reaches 2, counting equality as reaching it, for N17Q
TRUE

Could you verify whether the entry N17F shows protein stability index of no less than 2?
TRUE

Kindly determine if protein stability index recorded for H16F is above or exactly 2.
TRUE

Entry T12P : is its protein stability index no less than 2?
TRUE

Textbook exercise: given the entry L9H , state whether its protein stability index is greater than or equal to 2.
FALSE

Decide: protein stability index of K20D >= 2?
TRUE

Dear colleague, could you confirm whether P23G has protein stability index at or above 2?
TRUE

Hi team, for V21Q , is the recorded protein stability index at or above 2?
FALSE

Given P23I , state whether its protein stability index is at least 2.
TRUE

Form field: protein stability index at least 2? Entry: H19L
FALSE

Does the variant V21G have recorded protein stability index that is 2 or more?
TRUE

Check the entry T12F : does protein stability index equal or exceed 2?
TRUE

Decide: is the reported value of protein stability index for A22Q equal to or greater than 2?
TRUE

Kindly determine if protein stability index recorded for E6Y is above or exactly 2.
TRUE

Tell me whether protein stability index is at least 2 here: H7G
FALSE

Reported protein stability index reaches at least 2 for I5T ?
FALSE

Has F10Q a recorded protein stability index greater than or equal to 2?
FALSE

Just for reference, the supplement of paper PMC10567573 is where these values come from.
